I'd be grateful if you could share measured EC50 for these entries.
MEASUREMENT_TARGET: Neuromedin-B receptor (Homo sapiens, UniProt P28336)
Sequence (P28336 whole entry): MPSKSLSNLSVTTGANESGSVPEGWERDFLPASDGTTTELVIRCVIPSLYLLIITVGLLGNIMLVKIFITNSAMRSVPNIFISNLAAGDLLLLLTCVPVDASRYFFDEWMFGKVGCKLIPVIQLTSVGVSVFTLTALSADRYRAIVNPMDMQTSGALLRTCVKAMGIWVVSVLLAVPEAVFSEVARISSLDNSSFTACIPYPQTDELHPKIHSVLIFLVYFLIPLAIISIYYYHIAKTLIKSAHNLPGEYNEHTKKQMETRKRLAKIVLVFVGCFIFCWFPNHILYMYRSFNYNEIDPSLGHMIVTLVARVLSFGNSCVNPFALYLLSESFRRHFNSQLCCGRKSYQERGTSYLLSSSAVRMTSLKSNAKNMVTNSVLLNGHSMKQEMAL
TEST: Agonistic activity was determined against human Neuromedin B receptor transfected in HEK293 cells as accumulation levels of inositol phosphate
Give bare numbers, in nM.

>  <COMPOUND>
COc1cccc2[nH]c3c(c12)CC(NC(=O)Nc1c(C(C)C)cccc1C(C)C)(C(=O)NCC1(c2ccccn2)CCCCC1)CC3 (single isomer, unassigned; (+))

>  <VALUE_UNIT>
nM

>  <EC50>
17.7

$$$$

Provide the reported EC50 of each entry below, same order.
1. COc1cccc2[nH]c3c(c12)CC(NC(=O)Nc1c(C(C)C)cccc1C(C)C)(C(=O)NCC1(c2ccccn2)CCCCC1)CC3 (single isomer, unassigned; (-))
2. COc1cccc2[nH]c3c(c12)CC(NC(=O)Nc1c(C(C)C)cccc1C(C)C)(C(=O)NCC1(c2ccccn2)CCCCC1)CC3 (stereo in doubt; 20)
3. CC(C)c1cccc(C(C)C)c1NC(=O)NC1(C(=O)NCC2(c3ccccn3)CCCCC2)CCc2[nH]c3ccccc3c2C1 (centres undefined)

Solution:
1. 1970
2. 132
3. 603
